System: BDC2.5 TCR
Experiment: I-Ag7 SABR-II library screen, enrichment score
Type: cell-based, mouse
Details: I-Ag7 library; EXPT1 of 8 biological experiments
Measured attribute: Enrichment score

# Chain sequence, Measured attribute, Recorded measurement
data = [
    ("SRLGLWVRME [top putative hit of BDC2.5 TCR in I-Ag7 library]", "Enrichment score", 0.000716),
    ("ALVREGLRNVAAGANP", "Enrichment score", "-1.509e-5"),
    ("EKAHVPIWARMDAKK", "Enrichment score", 0.000866),
    ("RVRPLWVRME [top putative hit of BDC2.5 TCR in I-Ag7 library]", "Enrichment score", 0.001251),
    ("AEKVRNLPAGHGLNAQ", "Enrichment score", "2.296e-5"),
    ("AAVRPLWVRMEAA [top putative hit of BDC2.5 TCR in I-Ag7 library]", "Enrichment score", 0.000742),
    ("AKAAVEEGIVAGGGV", "Enrichment score", -0.0001132),
]
